assay: Stability: degradation products (DP) and appearance (color) under stress conditions; format: physicochemical; conditions: 1-2 weeks 50° C./75% r.h.; 1% in mixture 2
measured attribute: DP (%)

CCS(=O)(=O)O.Cn1c(Nc2ccc(C(F)(F)F)cc2)nc2cc(Oc3ccnc(-c4ncc(C(F)(F)F)[nH]4)c3)ccc21 [Esylate]	0.8
Cn1c(Nc2ccc(C(F)(F)F)cc2)nc2cc(Oc3ccnc(-c4ncc(C(F)(F)F)[nH]4)c3)ccc21	0.5

A. Cn1c(Nc2ccc(C(F)(F)F)cc2)nc2cc(Oc3ccnc(-c4ncc(C(F)(F)F)[nH]4)c3)ccc21.O=C(O)/C=C\C(=O)O [Maleate]
B. CS(=O)(=O)O.Cn1c(Nc2ccc(C(F)(F)F)cc2)nc2cc(Oc3ccnc(-c4ncc(C(F)(F)F)[nH]4)c3)ccc21 [Mesylate]
INPUT: Among A and B , whose measured DP is the smaller figure? Pick one; state its label.
OUTPUT: A

###

test: Bioavailability study of API and salts of API in dogs; format: in vivo, beagle dogs; conditions: beagle, dog, plasma, single 100 mg oral dose, fasting, median
measured attribute: Tmax (h)

CS(=O)(=O)O.Cn1c(Nc2ccc(C(F)(F)F)cc2)nc2cc(Oc3ccnc(-c4ncc(C(F)(F)F)[nH]4)c3)ccc21 [Mesylate]	5

1. Cn1c(Nc2ccc(C(F)(F)F)cc2)nc2cc(Oc3ccnc(-c4ncc(C(F)(F)F)[nH]4)c3)ccc21.O=C(O)/C=C\C(=O)O [Maleate]
2. Cn1c(Nc2ccc(C(F)(F)F)cc2)nc2cc(Oc3ccnc(-c4ncc(C(F)(F)F)[nH]4)c3)ccc21
INPUT: Compare 1 and 2 by numeric Tmax and name the larger one. Pick one; state its label.
OUTPUT: 2
(2: 16 h, 1: 4 h)

###

assay: Polymorphism behavior: crystal modification after 24 hours equilibration; type: physicochemical; settings: PEG400
measured attribute: Crystal modification after 24 hours equilibration (DSC/XRPD/TG)

CS(=O)(=O)O.Cn1c(Nc2ccc(C(F)(F)F)cc2)nc2cc(Oc3ccnc(-c4ncc(C(F)(F)F)[nH]4)c3)ccc21 [Mesylate]	No change
Cn1c(Nc2ccc(C(F)(F)F)cc2)nc2cc(Oc3ccnc(-c4ncc(C(F)(F)F)[nH]4)c3)ccc21	No change
CCS(=O)(=O)O.Cn1c(Nc2ccc(C(F)(F)F)cc2)nc2cc(Oc3ccnc(-c4ncc(C(F)(F)F)[nH]4)c3)ccc21 [Esylate]	No change

###

test: Determination of solubility at 25° C.; type: physicochemical; conditions: aqueous medium at pH 3, 25 °C, pH 3, aqueous buffer, thermodynamic from solid; read-out: Solubility (approx. at 25° C.) (HPLC)
measured attribute: solubility (µg/mL)

CCS(=O)(=O)O.Cn1c(Nc2ccc(C(F)(F)F)cc2)nc2cc(Oc3ccnc(-c4ncc(C(F)(F)F)[nH]4)c3)ccc21 [Esylate]	2.3

A. CS(=O)(=O)O.Cn1c(Nc2ccc(C(F)(F)F)cc2)nc2cc(Oc3ccnc(-c4ncc(C(F)(F)F)[nH]4)c3)ccc21 [Mesylate]
B. Cn1c(Nc2ccc(C(F)(F)F)cc2)nc2cc(Oc3ccnc(-c4ncc(C(F)(F)F)[nH]4)c3)ccc21.O=C(O)/C=C\C(=O)O [Maleate]
INPUT: Compare A and B by numeric solubility and name the larger one. Pick one; state its label.
OUTPUT: A
(A: 0.5 µg/mL, B: 0.15 µg/mL)

###

assay: Aqueous solubility of API as a function of pH (shake flask method); format: physicochemical; conditions: aqueous HCl or NaOH solution, ionic strength 0.15 (KCl), simulated gastric fluid, thermodynamic from solid; pH 1.36; room temperature, 5 days
measured attribute: solubility at 5 days (µg/mL)
# value in µg/mL; strip the unit string

INPUT: Would you mind telling me what solubility at 5 days value was observed for Cn1c(Nc2ccc(C(F)(F)F)cc2)nc2cc(Oc3ccnc(-c4ncc(C(F)(F)F)[nH]4)c3)ccc21 ?
OUTPUT: 709
